Below: a set of entries, each annotated with reported CHEAL preemergence injury score 0-100.
System: lambsquarters (Chenopodium album)
EXPERIMENT: Preemergence herbicidal activity, lambsquarters
Format: in vivo
CONDITION_INFO: 8.8 g/Ha, soil spray, visual after 3 weeks; 0 no injury, 100 complete kill or no germination
Procedure: The soil matrix was contained in plastic pots with a surface area of 161 square centimeters. When required to ensure good germination and healthy plants, a fungicide treatment and/or other chemical or physical treatment was applied. A weighed amount, determined by the highest rate to be tested, of each test compound was placed in a 20 mL glass vial and was dissolved in 8 mL of a 97:3 v/v (volume/volume) mixture of acetone and dimethyl sulfoxide to obtain concentrated stock solutions. […]

MOLECULE_SMILES | CHEAL preemergence injury score 0-100
COc1cc(OC)n2nc(NS(=O)(=O)c3cscc3OC)nc2n1 | 98%
COc1csc(Cl)c1S(=O)(=O)Nc1nc2c(C)cnc(OC)n2n1 | 70%
COc1cc(OC)n2nc(NS(=O)(=O)c3c(OC)csc3C)nc2n1 | 100%
COc1csc(C(F)(F)F)c1S(=O)(=O)Nc1nc2c(OC)cnc(OC)n2n1 | 95%
COc1ccsc1S(=O)(=O)Nc1nc2c(Cl)cnc(OC)n2n1 | 98%
COc1sccc1S(=O)(=O)Nc1nc2c(OC)cnc(OC)n2n1 | 70%
CCOc1cscc1S(=O)(=O)Nc1nc2nc(OC)cc(OC)n2n1 | 100%
COc1cc(OC)n2nc(NS(=O)(=O)c3c(OC)csc3Cl)nc2n1 | 90%

----------
Test system: crabgrass (Digitaria sanguinalis)
EXPERIMENT: Preemergence herbicidal activity, crabgrass
Format: in vivo
CONDITION_INFO: 35 g/Ha, soil spray, visual after 3 weeks; 0 no injury, 100 complete kill or no germination

MOLECULE_SMILES | DIGSA preemergence injury score 0-100 (%)
COc1csc(C)c1S(=O)(=O)Nc1nc2c(Cl)cnc(OC)n2n1 | 98
COc1cnc(OC)n2nc(NS(=O)(=O)c3ccsc3CC(=O)O)nc12 | 100
COc1cc(OC)n2nc(NS(=O)(=O)c3sc(Cl)cc3OC)nc2n1 | 90

----------
Test system: wild oats (Avena fatua)
EXPERIMENT: Preemergence herbicidal activity, wild oats
Assay type: in vivo
CONDITION_INFO: 35 g/Ha, soil spray, visual after 3 weeks; 0 no injury, 100 complete kill or no germination

MOLECULE_SMILES | AVEFA preemergence injury score 0-100, %
COc1cnc(OC)n2nc(NS(=O)(=O)c3ccsc3CC(=O)O)nc12 | 80
COc1cscc1S(=O)(=O)Nc1nc2c(Cl)cnc(OC)n2n1 | 100
COc1cscc1S(=O)(=O)Nc1nc2c(OC)ccc(OC)n2n1 | 0
COc1csc(C)c1S(=O)(=O)Nc1nc2c(Cl)cnc(OC)n2n1 | 70
